System: EMT6
Experimental Protocol: Hypersensitivity (HF) factor in murine mammary carcinoma EMT6 cells [HF= ratio (IC50 in AA8 cells)/(IC50 in EMT6)]
Type: functional, Mus musculus
Outcome: yes (1) for HF of at least 3; no (0) for anything lower.

Compound | Label Value
Cc1ncc([N+](=O)[O-])n1CCN(C)CCCCn1ccnc1[N+](=O)[O-] | no (0)
Cc1ncc([N+](=O)[O-])n1CCNCCCCn1ccnc1[N+](=O)[O-] | no (0)
Cc1ncc([N+](=O)[O-])n1CCNS(=O)(=O)CCCn1cnc([N+](=O)[O-])n1 | no (0)
Cc1ncc([N+](=O)[O-])n1CCNC(=O)CCC(=O)NCCn1ccnc1[N+](=O)[O-] | yes (1)
Cc1ncc([N+](=O)[O-])n1CCN(C)C(=O)CCCn1ccnc1[N+](=O)[O-] | no (0)
O=[N+]([O-])c1nccn1CC1OC(n2ccnc2[N+](=O)[O-])C(O)C(O)C1O (stereo not given) | no (0)
Cc1ncc([N+](=O)[O-])n1CC(O)Cn1cnc([N+](=O)[O-])n1 (stereo not given) | yes (1)
Cc1ncc([N+](=O)[O-])n1CCNCCCn1ccnc1[N+](=O)[O-] | yes (1)

QUERY: Could you please find out whether "O=[N+]([O-])c1nccn1CCCNCCCn1ccnc1[N+](=O)[O-]" has HF that meets 3 or exceeds it?
RESULT: yes (1)

QUERY: Also COCC(O)Cn1ccnc1[N+](=O)[O-] (stereo not given) , if possible.
RESULT: yes (1)

QUERY: Also "CN(CCCn1ccnc1[N+](=O)[O-])CCCn1ccnc1[N+](=O)[O-]" , if possible.
RESULT: no (0)

QUERY: Also "Cc1ncc([N+](=O)[O-])n1CCNC(=O)CCCn1ccnc1[N+](=O)[O-]" , if possible.
RESULT: yes (1)

QUERY: Also O=[N+]([O-])c1nccn1CC(O)CN1CCCCC1 (stereo not given) , if possible.
RESULT: yes (1)

QUERY: Also "Cc1ncc([N+](=O)[O-])n1CCNC(=O)CCCn1cnc([N+](=O)[O-])n1" , if possible.
RESULT: yes (1)

----------
Experimental Protocol: Ratio between aerobic CT10 and hypoxic CT10
Assay type: functional
Measured selectivity ratio values are reported for all entries that follow.
Reply with just the number.

Molecule | Obs Value
O=C(CCCn1cnc([N+](=O)[O-])n1)NCCCn1ccnc1[N+](=O)[O-] | 3.5
COCC(O)Cn1ccnc1[N+](=O)[O-] (stereo not given) | 18
Cc1ncc([N+](=O)[O-])n1CCNCCCn1ccnc1[N+](=O)[O-] | 14
O=[N+]([O-])c1nccn1CC(O)CNCCBr (stereo not given) | 20

Next:
QUERY: # get_value(readout='selectivity ratio', item= "Cc1ncc([N+](=O)[O-])n1CCN(C)CCCCn1ccnc1[N+](=O)[O-]" )
RESULT: 8

----------
Measured HF values are reported for all entries that follow.
Test system: FME
Experimental Protocol: Hypersensitivity (HF) factor in human melanoma FME cells [HF= ratio (IC50 in AA8 cells)/(IC50 in FME cells)]
Type: functional

Examples with answers:
Molecule | HF
O=C(CCCn1cnc([N+](=O)[O-])n1)NCCn1ccnc1[N+](=O)[O-] | >1.9
Cc1ncc([N+](=O)[O-])n1CCNS(=O)(=O)CCCn1ccnc1[N+](=O)[O-] | >0.91

QUERY: Given the entry Cc1ncc([N+](=O)[O-])n1CC(O)Cn1ccnc1[N+](=O)[O-] (stereo not drawn) , what HF was observed with FME?
RESULT: >1.11
